system: HCV Replicon IB; assay: HCV replicon assay in Huh-7 cells, genotype 1b (Rluc luciferase readout); format: cell-based, hepatitis C virus; details: Hepatitis C virus, 72 h; 10 uM; 1b-Rluc replicon, Huh-7 cells, 3 days; read-out: Inhibition @ 10 uM in 1b-Rluc
Measure name: inhibition at 10 µM (%)
Report only the number, with the unit % understood.

Lookup: Bench note: what inhibition at 10 µM did Cc1cc(C(=O)NC/C=C/c2ccccc2)nc2c(C(F)(F)F)cc(-c3ccccc3)cc12 [Compound 170] show?
Found: 66.4

Lookup: Bench note: what inhibition at 10 µM did CC(C)(C)c1cc(C2CC2)cc2c(Cl)cc(C(=O)NCc3ccccn3)nc12 [Compound 229] show?
Found: 100

Lookup: Bench note: what inhibition at 10 µM did Cc1cc(C(=O)NCC2COCCN2)nc2c(C(F)(F)F)cc(C3CC3)cc12 (centres unmarked) [Compound 100] show?
Found: 99.5

Lookup: Bench note: what inhibition at 10 µM did COc1cc(C(F)(F)F)c2nc(-c3nnc(NCCCO)o3)cc(C)c2c1 [Compound 277] show?
Found: 98.2

Lookup: Bench note: what inhibition at 10 µM did Cc1cc(-c2nnc(NCCCO)o2)nc2c(C(C)(C)C)cc(C3CC3)cc12 [Compound 282] show?
Found: 99.9

Lookup: Bench note: what inhibition at 10 µM did Cc1cc(-c2nnc(NCC(=O)N(C)C)o2)nc2c(C(C)(C)C)cc(C3CC3)cc12 [Compound 281] show?
Found: 99.8

Lookup: Bench note: what inhibition at 10 µM did COCCCNc1nnc(-c2cc(C)c3cc(OC)cc(C(F)(F)F)c3n2)o1 [Compound 274] show?
Found: 99.4

Lookup: Bench note: what inhibition at 10 µM did Cc1cc(-c2nnc(NCCC(C)O)s2)nc2c(C(F)(F)F)cc(C3CC3)cc12 (centres unmarked) [Compound 302] show?
Found: 99.9

* * *

test system: HCV Replicon IB; test: HCV replicon assay in Huh-7 cells, genotype 1b (Rluc luciferase readout); type: cell-based, hepatitis C virus; settings: Hepatitis C virus, 72 h; 10 uM; 1b-Rluc replicon, Huh-7 cells, 3 days; read-out: Inhibition @ 10 uM in 1b-Rluc
Measure name: inhibition at 10 µM (%)
Report only the number, with the unit % understood.

Lookup: Bench note: what inhibition at 10 µM did COCCNC(=O)CNC(=O)c1cc(C)c2cc(C3CC3)cc(C(F)(F)F)c2n1 [Compound 117] show?
Found: 94.7

Lookup: Bench note: what inhibition at 10 µM did Cc1cc(-c2nnc(NCCCCCO)s2)nc2c(C(F)(F)F)cc(C3CC3)cc12 [Compound 291] show?
Found: 99.1

Lookup: Bench note: what inhibition at 10 µM did CC(C)(C)c1cc(C2CC2)cc2c(Cl)cc(C(=O)NCC3COCCN3)nc12 (centres unmarked) [Compound 228] show?
Found: 94.7

Lookup: Bench note: what inhibition at 10 µM did Cc1cc(C(=O)NCC(C)(C)C#N)nc2c(C(F)(F)F)cc(-c3ccccc3)cc12 [Compound 162] show?
Found: 80.5

Lookup: Bench note: what inhibition at 10 µM did Cc1cc(C(=O)NCc2ccccn2)nc2c(C(F)(F)F)cc(C#N)cc12 [Compound 144] show?
Found: 57.9

* * *

Provide the recorded EC50 for the entries that follow.
test system: HCV Replicon IB; assay: HCV replicon assay in Huh-7 cells, genotype 1b (Rluc luciferase readout); format: cell-based, hepatitis C virus; details: Hepatitis C virus, Huh-7, 72 h, HCV1B replicon, Huh-7 cells, 3 days; read-out: EC50_HCV1B_
Report only the number, with the unit nM understood.

Lookup: Bench note: what EC50 did Cc1cc(-c2nnc(N[C@H]3C[C@@](O)(CF)C3)o2)nc2c(C(C)(C)C)cc(C3CC3)cc12 [Compound 516] show?
Found: 7.15

Lookup: Bench note: what EC50 did CC(C)(C)c1cc(C2CC2)cc2c(N)cc(-c3nnc(NCC(F)(F)CO)o3)nc12 [Compound 372] show?
Found: 1.95

Lookup: Bench note: what EC50 did Cc1cc(C(=O)NC[C@@H]2CS(=O)(=O)CCN2)nc2c(C(C)(C)C)cc(C3CC3)cc12 [Compound 426] show?
Found: 6.27

Lookup: Bench note: what EC50 did Cc1cc(-c2nnc(NCC3OCCO3)o2)nc2c(C3(C)OCCO3)cc(C3CC3)cc12 [Compound 540] show?
Found: 36.6

Lookup: Bench note: what EC50 did CCCCCNc1nnc(-c2cc(C)c3cc(C4CC4)cc(C(F)(F)F)c3n2)o1 [Compound 388] show?
Found: 13.2

Lookup: Bench note: what EC50 did Cc1cc(-c2nnc(NCC3COC3)o2)nc2c(C(C)(C)C)cc(OCC(F)(F)F)cc12 [Compound 485] show?
Found: 1050

Lookup: Bench note: what EC50 did Cc1nnc(-c2cc(OC(F)(F)F)cc3c(Cl)cc(C(=O)NCc4ccccn4)nc23)o1 [Compound 338] show?
Found: 4710

Lookup: Bench note: what EC50 did Cc1cc(-c2nnc(N[C@H]3C[C@H](O)C3)o2)nc2c(C(C)(C)C)cc(OCC(F)(F)F)cc12 [Compound 463] show?
Found: 3.76

Lookup: Bench note: what EC50 did Cc1cc(-c2nnc(NC3CC(C)(OCS(C)(=O)=O)C3)o2)nc2c(C(C)(C)C)cc(OCC(F)(F)F)cc12 (stereo not shown) [Compound 495] show?
Found: 38.4

Lookup: Bench note: what EC50 did CCCO[C@H]1CN[C@H](CNC(=O)c2cc(N)c3cc(C4CC4)cc(C(C)(C)C)c3n2)C1 [Compound 331] show?
Found: 243

Lookup: Bench note: what EC50 did CC(C)(C)c1cc(C2CC2)cc2c(Cl)cc(-c3nnc(Nc4ccccc4)o3)nc12 [Compound 349] show?
Found: 26.9

Lookup: Bench note: what EC50 did Cc1cc(-c2nnc(NCc3ncc[nH]3)o2)nc2c(C(C)(C)C)cc(C3CC3)cc12 [Compound 394] show?
Found: 1130

Lookup: Bench note: what EC50 did Cc1cc(C(=O)NC[C@@H]2CC3(CN2)OCCO3)nc2c(C(C)(C)C)cc(C3CC3)cc12 [Compound 431] show?
Found: 8.04

Lookup: Bench note: what EC50 did Cc1cc(-c2nnc(N[C@H]3C[C@](O)(C(F)S(=O)(=O)c4ccccc4)C3)o2)nc2c(C(C)(C)C)cc(OCC(F)(F)F)cc12 (stereo partly shown) [Compound 481] show?
Found: 2880

Lookup: Bench note: what EC50 did Cc1cc(-c2nnc(NCC[C@@H](C)O)s2)nc2c(C(C)(C)C)cc(C3CC3)cc12 [Compound 386] show?
Found: 1.14

Lookup: Bench note: what EC50 did Nc1nc(C(=O)NCc2cnccn2)nc2c(C(F)(F)F)cc(-c3ccccc3)cc12 [Compound 435] show?
Found: 7.84

Lookup: Bench note: what EC50 did Cc1cc(-c2nnc(N[C@H]3C[C@@](C)(O)C3)o2)nc2c(C(C)(C)C)cc(OC(F)F)cc12 [Compound 525] show?
Found: 0.74

Lookup: Bench note: what EC50 did CC(C)(C)c1cc(C2CC2)cc2c(N)cc(C(=O)NC[C@H]3CS(=O)(=O)CCN3)nc12 [Compound 335] show?
Found: 3.02

Lookup: Bench note: what EC50 did Cc1cc(-c2nnc(N[C@H]3C[C@@](O)(CF)C3)o2)nc2c(C(C)(C)C)cc(OCC(F)(F)F)cc12 [Compound 517] show?
Found: 5.76

Lookup: Bench note: what EC50 did CCCCNc1nnc(-c2cc(N)c3cc(C4CC4)cc(C(C)(C)C)c3n2)s1 [Compound 376] show?
Found: 0.86

Lookup: Bench note: what EC50 did Cc1cc(-c2nnc(NCCC(C)(C)O)o2)nc2c(C(C)(C)C)cc(OCC(F)(F)F)cc12 [Compound 449] show?
Found: 11.3

Lookup: Bench note: what EC50 did Cc1cc(-c2nnc(NC[C@H]3CCCO3)o2)nc2c(C(C)(C)C)cc(C3CC3)cc12 [Compound 397] show?
Found: 3.17

Lookup: Bench note: what EC50 did Cc1cc(-c2nnc(NCC3OCCO3)o2)nc2c(C(C)(C)C)cc(OCC3OCCO3)cc12 [Compound 533] show?
Found: 306

Lookup: Bench note: what EC50 did Cc1cc(C(=O)NC[C@@H]2CC3(CN2)OCCO3)nc2c(OC(F)(F)F)cc(C3CC3)cc12 [Compound 443] show?
Found: 18.8

Lookup: Bench note: what EC50 did Cc1cc(C(=O)NC[C@@H]2CS(=O)(=O)CCN2)nc2c(OC(F)(F)F)cc(C3CC3)cc12 [Compound 441] show?
Found: 12.4

Lookup: Bench note: what EC50 did CCC(CNC(=O)c1cc(N)c2cc(OC(F)F)cc(C(F)(F)F)c2n1)=NOC [Compound 316] show?
Found: 61.8

Lookup: Bench note: what EC50 did Cc1cc(-c2nnc(NCC[C@@H](C)O)o2)nc2c(C(C)(C)C)cc(OCC(F)(F)F)cc12 [Compound 455] show?
Found: 3.05

Lookup: Bench note: what EC50 did CC(C)(C)c1cc(C2CC2)cc2c(N)cc(-c3nnc(NC4CCCC4)o3)nc12 [Compound 348] show?
Found: 5.27

Lookup: Bench note: what EC50 did Cc1cc(C(=O)NC[C@@H]2C[C@](C)(O)CN2)nc2c(C(C)(C)C)cc(C3CC3)cc12 [Compound 429] show?
Found: 294

Lookup: Bench note: what EC50 did Cc1cc(-c2nnc(NCC3OCCO3)o2)nc2c(OC(F)(F)F)cc(C3CC3)cc12 [Compound 444] show?
Found: 5.88

Lookup: Bench note: what EC50 did CC(C)(C)c1cc(C2CC2)cc2c(N)cc(C(=O)NCc3cnccn3)nc12 [Compound 320] show?
Found: 1.7
